- TEST SYSTEM: SMARCA2 (Homo sapiens, UniProt P51531)
- Sequence (P51531 whole entry): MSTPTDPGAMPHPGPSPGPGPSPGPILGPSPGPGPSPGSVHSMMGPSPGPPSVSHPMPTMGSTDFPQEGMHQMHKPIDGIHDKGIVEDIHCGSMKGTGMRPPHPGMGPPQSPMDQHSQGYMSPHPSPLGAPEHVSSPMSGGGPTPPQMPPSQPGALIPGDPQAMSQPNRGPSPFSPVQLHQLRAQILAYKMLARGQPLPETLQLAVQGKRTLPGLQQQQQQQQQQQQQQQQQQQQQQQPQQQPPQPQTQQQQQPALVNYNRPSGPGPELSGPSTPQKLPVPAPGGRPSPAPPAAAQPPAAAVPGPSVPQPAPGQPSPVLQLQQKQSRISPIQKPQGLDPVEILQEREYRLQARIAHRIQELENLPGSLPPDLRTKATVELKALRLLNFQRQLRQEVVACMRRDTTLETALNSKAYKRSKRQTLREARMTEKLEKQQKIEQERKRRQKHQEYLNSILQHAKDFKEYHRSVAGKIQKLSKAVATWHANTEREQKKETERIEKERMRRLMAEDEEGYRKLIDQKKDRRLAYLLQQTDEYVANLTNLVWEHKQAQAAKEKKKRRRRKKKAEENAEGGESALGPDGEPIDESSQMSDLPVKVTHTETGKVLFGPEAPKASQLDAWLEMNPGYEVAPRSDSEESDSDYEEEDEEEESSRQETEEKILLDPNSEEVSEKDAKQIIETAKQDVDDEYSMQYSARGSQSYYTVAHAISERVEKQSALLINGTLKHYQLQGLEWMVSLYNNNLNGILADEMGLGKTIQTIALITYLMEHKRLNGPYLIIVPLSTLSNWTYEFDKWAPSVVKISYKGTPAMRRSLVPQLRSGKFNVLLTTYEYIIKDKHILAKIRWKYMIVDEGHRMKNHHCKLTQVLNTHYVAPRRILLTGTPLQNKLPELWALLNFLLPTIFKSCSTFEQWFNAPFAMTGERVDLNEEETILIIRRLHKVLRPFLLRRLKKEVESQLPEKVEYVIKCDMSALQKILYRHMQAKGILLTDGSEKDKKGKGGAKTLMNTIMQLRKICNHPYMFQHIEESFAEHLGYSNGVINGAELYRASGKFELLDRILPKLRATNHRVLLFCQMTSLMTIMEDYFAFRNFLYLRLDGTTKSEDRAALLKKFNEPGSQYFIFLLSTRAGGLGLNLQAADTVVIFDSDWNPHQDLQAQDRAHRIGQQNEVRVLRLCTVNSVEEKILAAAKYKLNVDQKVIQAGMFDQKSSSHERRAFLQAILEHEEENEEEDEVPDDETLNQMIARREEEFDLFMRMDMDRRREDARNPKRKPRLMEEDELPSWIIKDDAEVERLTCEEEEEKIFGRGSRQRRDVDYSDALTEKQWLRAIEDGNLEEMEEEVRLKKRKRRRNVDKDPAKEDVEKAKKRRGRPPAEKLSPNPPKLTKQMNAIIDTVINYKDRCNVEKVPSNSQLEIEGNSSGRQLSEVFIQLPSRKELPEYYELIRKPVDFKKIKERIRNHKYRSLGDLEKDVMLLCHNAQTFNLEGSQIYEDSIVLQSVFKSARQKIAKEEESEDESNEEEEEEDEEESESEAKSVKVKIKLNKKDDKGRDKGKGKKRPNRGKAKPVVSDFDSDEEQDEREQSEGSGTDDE
- TEST: SMARCA2 Western blot degradation in MV4-11 cells
- Type: cell-based
- Design: SMARCA2/SMARCA4 protein degradation selectivity in MV4-11 cells; endogenous in cells; host or cells: MV4-11
- DETAILS: MV4-11 cells, 24 h; read-out: SMARCA2 MSD MV411 degradation 24 h: Mean external-Abs DC50
MEASUREMENT LABEL: DC50

COMPOUND	DC50
C#Cc1ccc(CNC(=O)[C@@H]2C[C@@H](O)CN2C(=O)[C@@H](NC(=O)[C@H]2CCC3(CC2)C[C@H](N2CCC(c4cnc(N5CCN6c7cc(-c8ccccc8O)nnc7NC[C@H]6C5)nc4)CC2)C3)C(C)(C)C)c(OCCCOC)c1 (single isomer, unassigned) [I-130]	1 to 10 nM

*Q* Recorded DC50 for C#Cc1ccc(CNC(=O)[C@@H]2C[C@@H](O)CN2C(=O)[C@@H](NC(=O)[C@H]2CCC3(CC2)C[C@H](N2CCN(c4cnc(N5CCN6c7cc(-c8ccccc8O)nnc7NC[C@H]6C5)nc4)CC24CC4)C3)C(C)(C)C)cc1 (some centres unmarked) [I-266] , please?
*A* 10 to 100 nM

====

Dmax: recorded values
- TEST SYSTEM: SMARCA2 (Homo sapiens)
- TEST: SMARCA2 Western blot degradation in MV4-11 cells
- Format: cell-based
- Set-up: SMARCA2/SMARCA4 protein degradation selectivity in MV4-11 cells; endogenous in cells; host or cells: MV4-11
- DETAILS: MV4-11, MV4-11 cells, 24 h; read-out: SMARCA2 MSD MV411 degradation 24 h: average Dmax %

COMPOUND	TEST SYSTEM	MEASUREMENT LABEL	ENDPOINT VALUE
Cc1ncsc1-c1ccc(CNC(=O)[C@@H]2C[C@@H](O)CN2C(=O)[C@@H](NC(=O)C2(F)CC2)C(C)(C)C)c(O[C@H]2CC[C@H](N3CCC(c4cnc(N5CCc6[nH]c7nnc(-c8ccccc8O)cc7c6[C@H]5C)nc4)CC3)CC2)c1 (single isomer, unassigned)	SMARCA2 (Homo sapiens)	Dmax	> 90%

Lab note: next compound to report on.
*Q* # lookup: Dmax of C#Cc1ccc(CNC(=O)[C@@H]2C[C@@H](O)CN2C(=O)[C@@H](OC(=O)N2CC3(CC(N4CCC(c5cnc(N6CCc7[nH]c8nnc(-c9ccccc9O)cc8c7[C@H]6C)nc5)CC4)C3)C2)C(C)(C)C)cc1
*A* > 90%

====

- TEST SYSTEM: SMARCA4 (Homo sapiens, UniProt P51532)
- Construct: SMARCA2/SMARCA4 protein degradation selectivity in MV4-11 cells; endogenous in cells; host or cells: MV4-11
- Sequence (P51532 whole entry): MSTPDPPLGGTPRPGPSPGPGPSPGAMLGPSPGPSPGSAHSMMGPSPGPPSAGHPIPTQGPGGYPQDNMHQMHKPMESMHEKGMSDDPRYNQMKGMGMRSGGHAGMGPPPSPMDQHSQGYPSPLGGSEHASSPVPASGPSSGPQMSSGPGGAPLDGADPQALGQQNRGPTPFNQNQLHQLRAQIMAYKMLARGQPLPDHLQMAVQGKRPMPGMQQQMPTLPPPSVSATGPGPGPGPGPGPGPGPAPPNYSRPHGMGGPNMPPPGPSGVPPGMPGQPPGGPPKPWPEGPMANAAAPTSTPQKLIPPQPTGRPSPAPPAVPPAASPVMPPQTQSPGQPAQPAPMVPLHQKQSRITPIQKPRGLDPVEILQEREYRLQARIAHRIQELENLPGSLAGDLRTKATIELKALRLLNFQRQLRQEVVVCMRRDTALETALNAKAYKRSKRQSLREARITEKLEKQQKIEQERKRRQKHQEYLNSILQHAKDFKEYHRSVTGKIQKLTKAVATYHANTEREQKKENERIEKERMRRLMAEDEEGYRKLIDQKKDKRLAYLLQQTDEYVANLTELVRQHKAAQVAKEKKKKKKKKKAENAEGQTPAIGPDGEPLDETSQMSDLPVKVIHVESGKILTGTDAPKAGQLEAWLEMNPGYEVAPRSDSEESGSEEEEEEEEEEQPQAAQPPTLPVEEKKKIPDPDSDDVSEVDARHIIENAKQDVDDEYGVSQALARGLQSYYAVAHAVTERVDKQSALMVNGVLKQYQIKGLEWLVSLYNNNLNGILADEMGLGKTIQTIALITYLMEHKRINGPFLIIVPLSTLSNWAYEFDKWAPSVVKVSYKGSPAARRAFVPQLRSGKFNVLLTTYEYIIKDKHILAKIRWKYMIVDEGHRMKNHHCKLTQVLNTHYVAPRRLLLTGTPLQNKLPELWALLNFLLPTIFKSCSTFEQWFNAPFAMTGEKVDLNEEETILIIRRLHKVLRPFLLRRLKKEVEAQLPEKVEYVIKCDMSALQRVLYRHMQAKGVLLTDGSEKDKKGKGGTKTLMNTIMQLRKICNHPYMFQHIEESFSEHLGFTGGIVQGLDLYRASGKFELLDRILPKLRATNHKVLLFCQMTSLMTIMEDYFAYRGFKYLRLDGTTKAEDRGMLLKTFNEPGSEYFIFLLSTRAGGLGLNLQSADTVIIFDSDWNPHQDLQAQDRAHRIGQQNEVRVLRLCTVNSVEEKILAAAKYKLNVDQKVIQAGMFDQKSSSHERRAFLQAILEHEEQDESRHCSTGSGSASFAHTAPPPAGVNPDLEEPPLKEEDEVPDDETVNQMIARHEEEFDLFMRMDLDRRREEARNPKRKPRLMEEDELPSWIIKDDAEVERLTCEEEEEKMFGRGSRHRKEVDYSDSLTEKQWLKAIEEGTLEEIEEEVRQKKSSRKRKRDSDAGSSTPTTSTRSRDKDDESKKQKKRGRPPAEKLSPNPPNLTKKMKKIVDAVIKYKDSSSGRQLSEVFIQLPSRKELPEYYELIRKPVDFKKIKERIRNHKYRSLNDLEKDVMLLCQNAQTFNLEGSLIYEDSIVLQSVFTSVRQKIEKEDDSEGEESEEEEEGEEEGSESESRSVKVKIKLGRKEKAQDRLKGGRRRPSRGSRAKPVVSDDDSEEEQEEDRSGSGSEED
- TEST: SMARCA4 Western blot degradation in MV4-11 cells
- Type: cell-based
- DETAILS: MV4-11, MV4-11 cells, 24 h; read-out: SMARCA4 MSD MV411 degradation 24 h: average Dmax %
MEASUREMENT LABEL: Dmax

COMPOUND	TEST SYSTEM	Dmax
C#Cc1cc(Cl)c(CNC(=O)[C@@H]2C[C@@H](O)CN2C(=O)[C@@H](NC(=O)[C@H]2CC3(C2)C[C@H](N2CCC(N4CCC(N5CCN6c7cc(-c8ccccc8O)nnc7NC[C@H]6C5)CC4)CC2)C3)C(C)(C)C)c(OC)c1 (single isomer, unassigned)	SMARCA4 (Homo sapiens, UniProt P51532)	< 50%
C#Cc1ccc(CNC(=O)[C@@H]2C[C@@H](O)CN2C(=O)[C@@H](NC(=O)N2CC3(CC(N4CCC(c5cnc(N6CCc7[nH]c8nnc(-c9ccccc9O)cc8c7[C@H]6C)nc5)CC4)C3)C2)C(C)(C)CCN2CCN[C@@H](C(=O)O)C2)cc1	SMARCA4 (Homo sapiens, UniProt P51532)	< 50%

*Q* Consider the compound shown here: C#Cc1ccc(CNC(=O)[C@@H]2C[C@@H](O)CN2C(=O)[C@@H](NC(=O)N2CC3(CC(CCN4CCC(c5cnc(N6CCc7[nH]c8nnc(-c9ccccc9O)cc8c7[C@H]6C)nc5)CC4)C3)C2)C(C)(C)C)cc1 What is its recorded Dmax?
*A* > 90%

*Q* Look at this compound and give its reported Dmax. Cc1ncsc1-c1ccc(CNC(=O)[C@@H]2C[C@@H](O)CN2C(=O)[C@@H](NC(=O)N2CC3(CC(N4CCN(c5ccnc(N6CCN7c8cc(-c9ccccc9O)nnc8NC[C@H]7C6)n5)CC4)C3)C2)C(C)(C)C)cc1
*A* 70 to 90%

====

- TEST SYSTEM: SMARCA2 (Homo sapiens, UniProt P51531)
- TEST: MSD SMARCA2 degradation in A549 cell line
- Format: cell-based
- DETAILS: A549 cells, 24 h, read-out: SMARCA2 MSD A549 degradation 24 h: Average external-Abs DC50
MEASUREMENT LABEL: DC50

COMPOUND	MEASUREMENT LABEL	ENDPOINT VALUE
C#Cc1ccc([C@H](C)NC(=O)[C@@H]2C[C@@H](O)CN2C(=O)[C@@H](NC(=O)N2CC3(CC(N4CCC(c5cnc(N6CCc7[nH]c8nnc(-c9ccccc9O)cc8c7[C@H]6C)nc5)CC4)C3)C2)C(C)(C)CCO)cc1	DC50	< 10 nM

Shift focus to the following entry.
*Q* Which DC50 is reported for this compound? Cc1ncsc1-c1ccc(CNC(=O)[C@@H]2C[C@@H](O)CN2C(=O)C(c2cc(OCCCN3CCC(c4cnc(N5CCN6c7cc(-c8ccccc8O)nnc7NC[C@H]6C5)nc4)CC3)no2)C(C)C)cc1 (single isomer, unassigned)
*A* 10 to 50 nM

====

Attribute: Dmax
- TEST SYSTEM: SMARCA2 (Homo sapiens)
- TEST: MSD SMARCA2 degradation in A549 cell line
- Type: cell-based
- DETAILS: A549, A549 cells, 24 h

Example cases with answers are listed next.
COMPOUND	ENDPOINT VALUE
C#Cc1ccc(CNC(=O)[C@@H]2C[C@@H](O)CN2C(=O)[C@@H](NC(=O)N2CCN(CC3CCN([C@H]4CC[C@H](N5CCc6[nH]c7nnc(-c8ccccc8O)cc7c6[C@H]5C)CC4)CC3)CC2)C(C)(C)C)cc1	70 to 90%
C#Cc1ccc(CNC(=O)[C@@H]2C[C@@H](O)CN2C(=O)[C@@H](NC(=O)N2CC3(CC(N4CCN([C@H]5CC[C@H](N6CCc7[nH]c8nnc(-c9ccccc9O)cc8c7[C@H]6C)CC5)CC4)C3)C2)C(C)(C)C)cc1	> 90%
C#Cc1ccc(CNC(=O)[C@@H]2C[C@@H](O)CN2C(=O)[C@@H](NC(=O)N2CC3(CC(N4CCC(c5cnc(N6CCc7[nH]c8nnc(-c9ccccc9O)cc8c7[C@H]6C)nc5)CC4)C3)C2)C(C)(C)CCN2CCN[C@H](C(=O)O)C2)cc1	< 50%
C#Cc1ccc(CNC(=O)[C@@H]2C[C@@H](O)CN2C(=O)[C@@H](NC(=O)[C@H]2CCC3(CC2)C[C@H](N2CCN(c4cnc(N5CCN6c7cc(-c8ccccc8O)nnc7NC[C@H]6C5)nc4)CC24CC4)C3)C(C)(C)C)cc1 (stereo partly shown)	> 90%

*Q* # lookup: Dmax of C#Cc1ccc(CNC(=O)[C@@H]2C[C@@H](O)CN2C(=O)[C@@H](NC(=O)N2CC3(CN(CC4CCN(c5cnc(N6CCc7[nH]c8nnc(-c9ccccc9O)cc8c7[C@H]6C)nc5)CC4)C3)C2)C(C)(C)C)cc1
*A* > 90%

*Q* Please look up its Dmax: C#Cc1ccc(CNC(=O)[C@@H]2C[C@@H](O)CN2C(=O)[C@@H](NC(=O)[C@H]2CC3(C2)C[C@H](N2CCC(N4CCC(N5CCN6c7cc(-c8ccccc8O)nnc7NC[C@H]6C5)CC4)CC2)C3)C(C)(C)C)c(Cl)c1 (single isomer, unassigned)
*A* > 90%

*Q* Could you tell me which Dmax is on file for Cc1ncsc1-c1ccc(CNC(=O)[C@@H]2C[C@@H](O)CN2C(=O)C(c2cc(N3CCC(CCN4CCC(c5cnc(N6CCc7[nH]c8nnc(-c9ccccc9O)cc8c7[C@H]6C)nc5)CC4)CC3)no2)C(C)C)cc1 (stereo partly shown) ?
*A* > 90%

*Q* Query (compound): C#Cc1ccc([C@H](C)NC(=O)[C@@H]2C[C@@H](O)CN2C(=O)[C@@H](NC(=O)[C@H]2CC3(C2)C[C@H](N2CCC(N4CCC(N5CCN6c7cc(-c8ccccc8O)nnc7NC[C@H]6C5)CC4)CC2)C3)C(C)(C)C)cc1 (single isomer, unassigned) ; field requested: Dmax
*A* > 90%

*Q* Sample Cc1ncsc1-c1ccc(CNC(=O)[C@@H]2C[C@@H](O)CN2C(=O)[C@@H](NC(=O)N2CCC3(CC2)CC(N2CCC(c4cnc(N5CCc6[nH]c7nnc(-c8ccccc8O)cc7c6[C@@H]5C)nc4)CC2)C3)C(C)(C)C)cc1 — what was its Dmax?
*A* < 50%

*Q* Using the record for C#Cc1ccc(CNC(=O)[C@@H]2C[C@@H](O)CN2C(=O)[C@@H](NC(=O)[C@H]2CC3(C2)C[C@H](N2CCC(N4CCC(N5CCN6c7cc(-c8ccccc8O)nnc7NC[C@H]6C5)CC4)CC2)C3)C(C)(C)C)c(OC)c1 (single isomer, unassigned) , report its Dmax.
*A* > 90%
